Reported values of RBNS R-value for individual entries
# System: PfIESI-1 RRM domain (Plasmodium falciparum ortholog aa 875-1232, GST fusion)
# test_description: RBNS R-value (6-mer enrichment in protein-bound RNA vs input library) (ratio); higher = stronger binding preference
# setup_conditions: protein concentration: 250 nM
In all, about 4,100 sequences were measured (“RBNS R-value (6-mer enrichment in protein-bound RNA vs input library)”: median about 0.99, highest 2% from about 1.4 on). This excerpt belongs to a sample that is enriched for the highest values.
Reply briefly: the number, and no unit.

Recorded results for 5 sequences are shown here.
| residue_sequence | RBNS R-value |
| --- | --- |
| CUUUGU | 0.825 |
| AUGAUU | 2.75 |
| CUUAUA | 0.758 |
| GUGAUG | 2.02 |
| AGGAUU | 1.04 |

# RBNS R-value of `AGAUUC` = 1.19

# RBNS R-value of `GUGAAG` = 0.986

# RBNS R-value of `GAUAGU` = 1.01

# RBNS R-value of `UUGAUC` = 1.32

* * *

# Test system: PfIESI-1 RRM domain (Plasmodium falciparum ortholog aa 875-1232, GST fusion)
# test_description: RBNS R-value (6-mer enrichment in protein-bound RNA vs input library) (ratio); higher = stronger binding preference
# setup_conditions: protein concentration: 500 nM
Over roughly 4,100 sequences, “RBNS R-value (6-mer enrichment in protein-bound RNA vs input library)” has its median near 0.99; the highest 2% begin near 1.4. The entries come from a sample that favours the highest values as a whole.
Class MET: RBNS R-value at least 1. Class NOT MET: RBNS R-value below 1.

| residue_sequence | group |
| --- | --- |
| AGAGUC | MET |
| GAUUAA | MET |
| CCAUGA | MET |
| GAUUAG | MET |
| AUUUGG | MET |
| UUUAAG | NOT MET |
| GCUUGC | NOT MET |
| UAUGAA | NOT MET |
| AAUGCU | NOT MET |
| CAACUU | NOT MET |

Task: Would you say `AAUGAU` shows RBNS R-value at minimum 1?
Output: MET

* * *

# Test system: PfIESI-1 RRM domain (Plasmodium falciparum ortholog aa 875-1232, GST fusion)
# test_description: RBNS R-value (6-mer enrichment in protein-bound RNA vs input library) (ratio); higher = stronger binding preference
# setup_conditions: protein concentration: 500 nM
In all, about 4,100 sequences were measured (“RBNS R-value (6-mer enrichment in protein-bound RNA vs input library)”: median about 0.99, highest 2% from about 1.4 on). Shown is part of a subset that was picked to be rich in the highest values.
property_measured: RBNS R-value
Reply briefly: the number, and no unit.

Recorded results for 4 sequences are shown here.
| residue_sequence | RBNS R-value |
| --- | --- |
| CAUUCG | 0.992 |
| CUGCGG | 0.975 |
| AACGUG | 0.984 |
| GAGUGC | 1.01 |

Now for another entry.
# RBNS R-value of `GGCUGG` = 1

* * *

Reported values of RBNS R-value for individual entries
# Tested on: PfIESI-1 RRM domain (Plasmodium falciparum ortholog aa 875-1232, GST fusion)
# test_description: RBNS R-value (6-mer enrichment in protein-bound RNA vs input library) (ratio); higher = stronger binding preference; the methods of the paper give 50 / 100 / 500 nM protein instead
# setup_conditions: protein concentration: 1000 nM
Whole data set: some 4,100 sequences, median “RBNS R-value (6-mer enrichment in protein-bound RNA vs input library)” near 0.99, cut for the highest 2% near 1.4. The list comes from a sample in which the highest values are over-represented; it also holds close analogues and randomly drawn sequences.
Reply briefly: the number, and no unit.

| residue_sequence | RBNS R-value |
| --- | --- |
| GAGAAC | 1.27 |
| CCCCGA | 1.31 |
| ACCCGG | 1.32 |
| AGCGGC | 1.01 |

Simply: `AAUGGG` , PfIESI-1 RRM domain (Plasmodium falciparum ortholog aa 875-1232, GST fusion), RBNS R-value = 1.03
